Reported growth values follow for various compounds
test system: NCI-H322M lung; test: NCI-60 one-dose screen, 48 h (100 = growth as untreated, 0 = no growth, -100 = all killed); conditions: 10 µM unless noted
The panel holds about 83,000 compounds, 20% with a hit somewhere; the sample as a whole holds those more often.
# number only, unit % dropped from output

O=C(OCCCCOC(=O)n1cnc2ccccc21)n1cnc2ccccc21
105
c1cc(-c2ccc3c(c2)OCO3)n2nccc2n1
99.3
CCCCC[C@@H]1Cc2cc(O)c(C(=O)O)c3c2[C@H](C[C@@]2(CCCO2)O3)O1
121
O=C(O)c1cccc([N+](=O)[O-])c1/C=C/c1ccccc1
90.5
O=C1CCCCC=C1C[N+](=O)[O-]
105

Turning now to a further compound:
Could you share what growth was measured for COc1ccc(OC)c(/C=C2\Oc3cc(OCCN4CCCC4)ccc3C2=O)c1 , tested on NCI-H322M lung?
97.4
